A collection of compounds and their measured Cmax
- method: PK studies in mice, subcutaneous twice-a-day dosing, plasma and lung
- Type: in vivo
- condition_summary: mouse, sc, lung, 10 mg/kg subcutaneous twice-a-day
Please reply with the bare figure in ng/mL and do not write the unit itself.

{"compound": "Nc1nc(N)c2c(ccc3c2ccn3CC2CCCCC2)n1 [Compound 12]", "result_number": 10100}

Okay, next one:
Entry Nc1nc(N)c2c(ccc3c2ccn3Cc2ccccc2F)n1 [Compound 8] — recorded Cmax = 4140

====

- System: SARS-CoV-2 (USA-WA1/2020)
- method: microbe, parasite or virus in culture
- Type: cell-based
- condition_summary: Table 1; selectivity index=CC50/EC50
Reported SI is given for each of the following compounds.
Write no unit; give the number alone.

{"compound": "Cc1cc2c3c(N)nc(N)nc3ccc2n1Cc1ccc(C#N)cc1 [Compound 3]", "tested_target": "SARS-CoV-2 (USA-WA1/2020)", "SI": 477.3}

// Nc1nc(N)c2c(ccc3c2ccn3Cc2ccccc2C(F)(F)F)n1 [Compound 1] : SI value = 66.8

Notebook: Cc1ccccc1Cn1ccc2c3c(N)nc(N)nc3ccc21 [Compound 2] , SI read as 245
